# Test system: Hepatitis C virus
# assay_text: Antiviral activity against Hepatitis C virus genotype 1b infected in human Huh cells assessed as inhibition of viral replication by RT-PCR-based replicon assay
# Assay type: functional, cell-based, Hepacivirus hominis
result_type: EC50 (nM)

INSERT INTO measurements (item_smiles, result_type, unit_name, assay_value) VALUES
  ('COc1nc(NC(=O)C(C)(C)NC(=O)c2ccc3c(C4CCCC4)c(-c4ncc(Br)cn4)n(C)c3c2)ccc1/C=C/C(=O)O', 'EC50', 'nM', 7);

a: COc1nc(NC(=O)C2(NC(=O)c3ccc4c(C5CCCC5)c(-c5cnccn5)n(C)c4c3)CCCC2)cnc1/C=C/C(=O)O
b: CCOc1nc(NC(=O)C2(NC(=O)c3ccc4c(C5CCCC5)c(-c5cncnc5)n(C)c4c3)CCCC2)ccc1/C=C/C(=O)O
c: CCOc1nc(NC(=O)C2(NC(=O)c3ccc4c(C5CCCC5)c(-c5ccc(F)cn5)n(C)c4c3)CCC2)cnc1/C=C/C(=O)O
Req: Arrange items by their EC50 values in increasing order. Would you mind listing the labels in the order requested?
Resp: b, c, a
